The measured values listed here are drawn from ChEMBL document CHEMBL4020823.

molecular target: Serine/threonine-protein kinase mTOR (Homo sapiens, UniProt P42345); assay: Inhibition of N-terminal FLAG-tagged recombinant human mTOR (1362 to end residues)

{"columns": ["Smiles text", "IC50"],
 "data": [
  ["N#CCN1CCC(n2c(=O)cnc3cnc4ccc(-c5ccc(N)nc5)cc4c32)CC1", "7 nM"]
]}

====

tested on: SiHa; test: Growth inhibition of human SiHa cells after 72 hrs by CCK8 assay; type: functional, cell-based
pIC50: −log10 of the molar value.
Measure name: pIC50

{"columns": ["Smiles text", "Assayed target", "Observed result"],
 "data": [
  ["CO[C@H]1C[C@@H]2CC[C@@H](C)[C@@](O)(O2)C(=O)C(=O)N2CCCC[C@H]2C(=O)O[C@H]([C@H](C)C[C@@H]2CC[C@@H](O)[C@H](OC)C2)CC(=O)[C@H](C)/C=C(\\C)[C@@H](O)[C@@H](OC)C(=O)[C@H](C)C[C@H](C)/C=C/C=C/C=C/1C", "SiHa", 5.76],
  ["N#CCN1CCC(n2c(=O)cnc3cnc4ccc(-c5ccc(N)nc5)cc4c32)CC1", "SiHa", 6.96]
]}

====

assay: Tmax in Sprague-Dawley rat at 20 mg/kg, po administered as single dose by HPLC analysis; assay type: ADME, organism-based; details: in vivo

{"columns": ["Smiles text", "Tmax / h"],
 "data": [
  ["N#CCN1CCC(n2c(=O)cnc3cnc4ccc(-c5ccc(N)nc5)cc4c32)CC1", 3]
]}

====

assay: Protein binding in human plasma at 4 uM after 4 hrs by equilibrium dialysis method; type: ADME, cell-free; conditions: read-out: PPB (converted)

{"columns": ["Smiles text", "fraction unbound at 4 h, 4 µM"],
 "data": [
  ["N#CCN1CCC(n2c(=O)cnc3cnc4ccc(-c5ccc(N)nc5)cc4c32)CC1", 0.36]
]}

====

molecular target: Serine-protein kinase ATM (Homo sapiens); assay: Inhibition of full length recombinant human ATM
Sequence (Q13315 whole entry): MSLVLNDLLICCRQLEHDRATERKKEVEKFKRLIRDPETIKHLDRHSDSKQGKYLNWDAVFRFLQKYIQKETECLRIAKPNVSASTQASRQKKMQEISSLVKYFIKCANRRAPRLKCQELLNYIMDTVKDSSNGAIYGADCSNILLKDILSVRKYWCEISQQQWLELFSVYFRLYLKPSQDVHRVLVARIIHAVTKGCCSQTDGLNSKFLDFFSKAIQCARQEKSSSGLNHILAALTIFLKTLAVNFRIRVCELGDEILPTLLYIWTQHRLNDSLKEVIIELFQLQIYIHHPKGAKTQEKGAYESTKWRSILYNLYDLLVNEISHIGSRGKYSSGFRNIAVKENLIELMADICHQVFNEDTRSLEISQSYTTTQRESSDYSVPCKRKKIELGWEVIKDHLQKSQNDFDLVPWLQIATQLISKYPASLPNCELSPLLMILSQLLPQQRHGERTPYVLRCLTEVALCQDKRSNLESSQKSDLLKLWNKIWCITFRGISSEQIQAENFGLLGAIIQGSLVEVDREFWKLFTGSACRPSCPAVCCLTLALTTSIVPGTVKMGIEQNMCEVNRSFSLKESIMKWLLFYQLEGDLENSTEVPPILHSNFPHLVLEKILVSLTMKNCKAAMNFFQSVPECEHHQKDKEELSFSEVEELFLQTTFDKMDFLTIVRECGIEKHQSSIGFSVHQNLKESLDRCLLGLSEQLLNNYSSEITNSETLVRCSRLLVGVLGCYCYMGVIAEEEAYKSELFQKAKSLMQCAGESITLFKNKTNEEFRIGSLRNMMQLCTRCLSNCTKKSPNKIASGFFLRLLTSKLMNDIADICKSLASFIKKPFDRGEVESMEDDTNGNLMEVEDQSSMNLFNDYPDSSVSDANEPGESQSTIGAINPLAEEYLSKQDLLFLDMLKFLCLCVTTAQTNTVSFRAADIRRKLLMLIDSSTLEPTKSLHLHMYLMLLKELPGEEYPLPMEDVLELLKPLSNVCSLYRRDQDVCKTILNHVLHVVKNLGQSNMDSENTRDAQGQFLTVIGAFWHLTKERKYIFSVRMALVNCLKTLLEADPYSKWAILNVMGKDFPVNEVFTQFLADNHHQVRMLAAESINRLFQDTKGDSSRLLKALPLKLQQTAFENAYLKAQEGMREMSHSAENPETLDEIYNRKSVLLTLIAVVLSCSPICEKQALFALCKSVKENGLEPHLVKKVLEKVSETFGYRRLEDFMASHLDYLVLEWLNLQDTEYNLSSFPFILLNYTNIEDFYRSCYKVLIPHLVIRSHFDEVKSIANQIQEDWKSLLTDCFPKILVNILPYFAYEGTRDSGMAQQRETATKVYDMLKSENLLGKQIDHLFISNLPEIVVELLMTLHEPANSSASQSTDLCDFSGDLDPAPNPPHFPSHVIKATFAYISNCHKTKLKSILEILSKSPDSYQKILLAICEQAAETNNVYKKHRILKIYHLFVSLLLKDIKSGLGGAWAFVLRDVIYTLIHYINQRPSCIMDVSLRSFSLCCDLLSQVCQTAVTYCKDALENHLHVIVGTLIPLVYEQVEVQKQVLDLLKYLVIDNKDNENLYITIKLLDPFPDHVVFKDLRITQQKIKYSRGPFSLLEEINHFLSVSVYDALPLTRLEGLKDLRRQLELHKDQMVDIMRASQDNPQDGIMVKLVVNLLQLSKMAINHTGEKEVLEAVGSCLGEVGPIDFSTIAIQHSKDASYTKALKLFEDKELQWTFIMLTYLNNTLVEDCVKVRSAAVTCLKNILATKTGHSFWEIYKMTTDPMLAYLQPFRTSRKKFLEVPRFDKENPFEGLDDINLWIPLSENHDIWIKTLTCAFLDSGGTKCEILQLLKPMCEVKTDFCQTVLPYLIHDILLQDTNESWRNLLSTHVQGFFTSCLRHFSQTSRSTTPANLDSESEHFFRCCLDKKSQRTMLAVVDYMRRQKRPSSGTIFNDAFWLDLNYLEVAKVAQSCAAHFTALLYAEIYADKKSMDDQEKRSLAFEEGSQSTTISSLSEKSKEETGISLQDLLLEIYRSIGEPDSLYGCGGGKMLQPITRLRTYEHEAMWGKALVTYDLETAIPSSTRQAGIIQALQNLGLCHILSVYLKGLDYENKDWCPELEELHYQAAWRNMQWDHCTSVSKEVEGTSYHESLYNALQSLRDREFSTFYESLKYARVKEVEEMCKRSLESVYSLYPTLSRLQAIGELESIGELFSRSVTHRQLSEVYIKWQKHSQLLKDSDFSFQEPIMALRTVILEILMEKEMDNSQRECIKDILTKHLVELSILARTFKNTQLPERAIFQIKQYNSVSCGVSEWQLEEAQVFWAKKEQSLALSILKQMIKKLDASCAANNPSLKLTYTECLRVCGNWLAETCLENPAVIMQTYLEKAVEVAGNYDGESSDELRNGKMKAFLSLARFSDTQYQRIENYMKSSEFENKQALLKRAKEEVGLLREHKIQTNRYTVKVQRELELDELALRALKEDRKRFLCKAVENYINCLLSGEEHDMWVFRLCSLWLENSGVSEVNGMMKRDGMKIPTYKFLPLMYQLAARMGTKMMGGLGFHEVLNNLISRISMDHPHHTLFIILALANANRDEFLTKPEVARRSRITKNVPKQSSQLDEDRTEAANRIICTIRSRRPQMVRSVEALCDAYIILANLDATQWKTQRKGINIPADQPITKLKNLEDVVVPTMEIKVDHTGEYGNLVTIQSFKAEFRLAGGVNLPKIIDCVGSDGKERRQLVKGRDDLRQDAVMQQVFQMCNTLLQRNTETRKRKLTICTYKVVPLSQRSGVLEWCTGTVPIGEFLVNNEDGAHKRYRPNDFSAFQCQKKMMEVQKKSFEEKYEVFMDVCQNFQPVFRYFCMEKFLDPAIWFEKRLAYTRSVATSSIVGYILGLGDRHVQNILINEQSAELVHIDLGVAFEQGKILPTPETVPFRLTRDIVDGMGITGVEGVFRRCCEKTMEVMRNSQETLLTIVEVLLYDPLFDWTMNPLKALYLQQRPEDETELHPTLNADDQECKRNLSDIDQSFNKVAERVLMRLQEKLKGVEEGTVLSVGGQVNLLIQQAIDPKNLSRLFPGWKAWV
pIC50: −log10 of the molar value.

{"columns": ["Smiles text", "pIC50"],
 "data": [
  ["N#CCN1CCC(n2c(=O)cnc3cnc4ccc(-c5ccc(N)nc5)cc4c32)CC1", 7.21]
]}

====

experiment: Cmax in Sprague-Dawley rat at 20 mg/kg, po administered as single dose by HPLC analysis; assay type: ADME, organism-based; design: dose 20 mg/kg, route oral; details: in vivo
Measure name: Cmax

{"columns": ["Smiles text", "Measure name", "Observed result"],
 "data": [
  ["N#CCN1CCC(n2c(=O)cnc3cnc4ccc(-c5ccc(N)nc5)cc4c32)CC1", "Cmax", "807 ng/mL"]
]}

====

Consider the following compounds and their measured IC50 readings.
system: MDA-MB-231; experiment: Growth inhibition of human MDA-MB-231 cells after 72 hrs by CCK8 assay; assay type: functional, cell-based; conditions: MDA-MB-231, 72 h

{"columns": ["Compound", "Assayed target", "IC50"],
 "data": [
  ["N#CCN1CCC(n2c(=O)cnc3cnc4ccc(-c5ccc(N)nc5)cc4c32)CC1", "MDA-MB-231", "0.1 µM"],
  ["CO[C@H]1C[C@@H]2CC[C@@H](C)[C@@](O)(O2)C(=O)C(=O)N2CCCC[C@H]2C(=O)O[C@H]([C@H](C)C[C@@H]2CC[C@@H](O)[C@H](OC)C2)CC(=O)[C@H](C)/C=C(\\C)[C@@H](O)[C@@H](OC)C(=O)[C@H](C)C[C@H](C)/C=C/C=C/C=C/1C [SIROLIMUS]", "MDA-MB-231", "> 10 µM"]
]}

====

experiment: Protein binding in rabbit plasma at 4 uM after 4 hrs by equilibrium dialysis method; type: ADME, cell-free, Oryctolagus cuniculus; conditions: read-out: PPB (converted)

{"columns": ["Smiles text", "fraction unbound at 4 h, 4 µM"],
 "data": [
  ["N#CCN1CCC(n2c(=O)cnc3cnc4ccc(-c5ccc(N)nc5)cc4c32)CC1", 0.399]
]}

====

experiment: AUC (0 to infinity) in Sprague-Dawley rat at 20 mg/kg, po administered as single dose by HPLC analysis; type: ADME, organism-based; set-up: dose 20 mg/kg, route oral, time infinity; details: in vivo
Measure name: AUC(0-inf) (ng·h/mL)

{"columns": ["Smiles text", "Measure name", "Observed result"],
 "data": [
  ["N#CCN1CCC(n2c(=O)cnc3cnc4ccc(-c5ccc(N)nc5)cc4c32)CC1", "AUC(0-inf)", 2850]
]}

====

assay: Volume of distribution at steady state in Sprague-Dawley rat at 20 mg/kg, iv administered as single dose by HPLC analysis; type: ADME, organism-based; settings: in vivo, read-out: Vdss

{"columns": ["Smiles text", "Vd [L/kg]"],
 "data": [
  ["N#CCN1CCC(n2c(=O)cnc3cnc4ccc(-c5ccc(N)nc5)cc4c32)CC1", 16.7]
]}
